Reference for the values: ChEMBL document CHEMBL1275590

system: Mus musculus; experiment: Renal toxicity in BALB/c mouse assessed as blood urea nitrogen level in serum at 100 mg/kg/day, po administered for five days (Rvb= 29 mg/dl); format: organism-based; set-up: route oral; details: in vivo
reported property: Activity (mg/dL)
One number for each entry, in mg/dL.

Exercise: Bench note: what Activity did CCOc1cc(NC(=N)c2ccccn2)ccc1-c1ccc(-c2ccc(NC(=N)c3ccccn3)cc2OCC)o1 show?
Solution: 52

* * *

I'd appreciate it if you could supply half-life values for the items below.
test: Half life in golden Syrian hamster liver microsome by HPLC-MS/MS analysis in presence of 1 uM NADPH; assay type: ADME, Mesocricetus auratus; details: liver microsomes

- compound smiles: "CCOc1cc(NC(=N)c2ccccn2)ccc1-c1ccc(-c2ccc(NC(=N)c3ccccn3)cc2OCC)o1"
  half-life: "> 2 h"

Okay, next one:
Exercise: Bench note: what half-life did CC(C)Oc1cc(NC(=N)c2ccccn2)ccc1-c1ccc(-c2ccc(NC(=N)c3ccccn3)cc2OC(C)C)o1 show?
Solution: > 2 h

* * *

assay: Tmax in Swiss Webster mouse at 66 mg/kg, po by HPLC-MS/MS analysis; type: ADME, organism-based; parameters: dose 66 mg/kg, route oral; details: in vivo
reported property: Tmax (h)
Numbers only, in h.

Exercise: Bench note: what Tmax did CCOc1cc(NC(=N)c2ccccn2)ccc1-c1ccc(-c2ccc(NC(=N)c3ccccn3)cc2OCC)o1 show?
Solution: 2

* * *

tested on: Mus musculus; experiment: Renal toxicity in BALB/c mouse assessed as blood urea nitrogen level in serum at 10 mg/kg/day, iv administered for five days (Rvb= 20 mg/dl); format: organism-based; set-up: route intravenous; conditions: in vivo
reported property: Activity (mg/dL)
Numbers only, in mg/dL.

Exercise: Item CCOc1cc(NC(=N)c2ccccn2)ccc1-c1ccc(-c2ccc(NC(=N)c3ccccn3)cc2OCC)o1 with Mus musculus - Activity?
Solution: 24

* * *

test: AUC (0 to infinity) in Swiss Webster mouse at 5 mg/kg, iv by HPLC-MS/MS analysis; format: ADME, organism-based; parameters: time infinity, dose 5 mg/kg, route intravenous; settings: plasma
reported property: AUC(0-inf) (µM·h)
Numbers only, in µM·h.

Exercise: Bench note: what AUC(0-inf) did CC(C)Oc1cc(NC(=N)c2ccccn2)ccc1-c1ccc(-c2ccc(NC(=N)c3ccccn3)cc2OC(C)C)o1 show?
Solution: 9.53

* * *

test system: Mus musculus; assay: Renal toxicity in BALB/c mouse assessed as phosphorus level in serum at 10 mg/kg/day, iv administered for five days ((Rvb= 6.1 mg/dl); type: organism-based; parameters: route intravenous; conditions: in vivo
reported property: Activity

Exercise: Bench note: what Activity did CCOc1cc(NC(=N)c2ccccn2)ccc1-c1ccc(-c2ccc(NC(=N)c3ccccn3)cc2OCC)o1 show?
Solution: 8.1 mg/dL

* * *

test: Tmax in Swiss Webster mouse at 4.9 mg/kg, iv by HPLC-MS/MS analysis; format: ADME, organism-based; parameters: dose 4.9 mg/kg, route intravenous; conditions: in vivo
reported property: Tmax

Exercise: Bench note: what Tmax did CCOc1cc(NC(=N)c2ccccn2)ccc1-c1ccc(-c2ccc(NC(=N)c3ccccn3)cc2OCC)o1 show?
Solution: 5 min

* * *

I'd appreciate it if you could supply half-life values for the items below.
experiment: Half life in rat liver microsome by HPLC-MS/MS analysis in presence of 1 uM NADPH; type: ADME; details: liver microsomes

- compound smiles: "CC(C)Oc1cc(NC(=N)c2ccccn2)ccc1-c1ccc(-c2ccc(NC(=N)c3ccccn3)cc2OC(C)C)o1"
  result value: "> 120 min"

Exercise: Bench note: what half-life did CCOc1cc(NC(=N)c2ccccn2)ccc1-c1ccc(-c2ccc(NC(=N)c3ccccn3)cc2OCC)o1 show?
Solution: > 120 min
